meta.source: patent US20250304576A1

Molecular target: Recombinant IKKβ (Homo sapiens)
Construct: purchased Millipore, Dundee, UK
Assay: DELFIA IKKβ kinase assay (apparent Ki, Cheng-Prusoff)
Assay type: biochemical
Conditions: non-italicised figure: DELFIA assay
Each record is given Condition met if its reported Ki is strictly below 500 nM. Records at or above 500 nM are given Condition not met.

Qu. Here's an entry: Nc1nccc(-c2ccc3[nH]nc(N)c3c2)c1C#CC1(O)CCCCC1 . Is its Ki below 500 nM?
Ans. Condition not met

Qu. Regarding Nc1cccc(-c2cc(-c3ccnc(N)c3)cc3c(N)n[nH]c23)c1 , kindly confirm whether its Ki is beneath 500 nM.
Ans. Condition not met

Qu. Is it true that Ki reported for Nc1n[nH]c2ccc(-c3ccnc(NC(=O)Nc4cccc(Oc5ccccc5)c4)c3)cc12 is less than 500 nM?
Ans. Condition not met

Qu. Please state whether Ki is below 500 nM for CC(C)(C)c1cc2c(-c3ccc4[nH]nc(N)c4c3)ccnc2[nH]1
Ans. Condition met

Qu. Lab note: Ki threshold 500 nM. Does this compound come in strictly under it? Nc1n[nH]c2c(Br)cc(-c3ccnc4[nH]ccc34)cc12
Ans. Condition met

Qu. API: query returns whether the compound falls strictly under 500 nM in Ki. Query: CN(CCO)C(=O)Nc1cc(-c2ccc3[nH]nc(N)c3c2)ccn1
Ans. Condition not met

Qu. Does the reported Ki of the following compound sit strictly below 500 nM? Nc1n[nH]c2ccc(-c3ccnc(NC(=O)NCc4ccccc4)c3)cc12
Ans. Condition met

Qu. Is Ki strictly under 500 nM for the entry Nc1nccc(-c2ccc3[nH]nc(N)c3c2)c1C#CCC1CCNCC1 ?
Ans. Condition met

Qu. Criterion: Ki strictly below 500 nM. Is it met by Nc1n[nH]c2ccc(-c3ccnc(NCCN4CCOCC4)c3)cc12 ?
Ans. Condition met

* * *

Molecular target: Recombinant IKKβ (Homo sapiens, UniProt O14920)
Construct: purchased Millipore, Dundee, UK
Sequence (O14920 1-756): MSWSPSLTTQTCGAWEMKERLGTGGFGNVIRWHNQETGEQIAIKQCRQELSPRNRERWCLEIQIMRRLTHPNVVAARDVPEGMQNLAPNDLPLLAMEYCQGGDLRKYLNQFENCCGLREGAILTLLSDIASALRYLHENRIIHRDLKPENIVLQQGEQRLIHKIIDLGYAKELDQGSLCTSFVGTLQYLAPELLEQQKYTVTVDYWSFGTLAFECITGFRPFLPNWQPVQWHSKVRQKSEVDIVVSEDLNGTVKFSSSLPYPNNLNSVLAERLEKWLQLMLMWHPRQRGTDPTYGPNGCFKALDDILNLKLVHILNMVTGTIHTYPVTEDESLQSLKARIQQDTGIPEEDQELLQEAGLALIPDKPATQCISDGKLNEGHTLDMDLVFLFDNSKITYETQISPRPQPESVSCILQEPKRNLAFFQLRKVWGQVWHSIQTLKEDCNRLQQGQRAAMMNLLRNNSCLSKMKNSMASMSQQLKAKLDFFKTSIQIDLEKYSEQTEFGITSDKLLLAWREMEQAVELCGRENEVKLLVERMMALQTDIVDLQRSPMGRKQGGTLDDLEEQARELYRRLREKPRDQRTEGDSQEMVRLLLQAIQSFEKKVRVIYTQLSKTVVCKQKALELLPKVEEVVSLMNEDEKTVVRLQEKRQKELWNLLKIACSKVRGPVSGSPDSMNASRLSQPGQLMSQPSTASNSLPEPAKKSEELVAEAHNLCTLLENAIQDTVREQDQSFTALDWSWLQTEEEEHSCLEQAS
Experiment: DELFIA IKKβ kinase assay (apparent Ki, Cheng-Prusoff)
Assay type: biochemical
Conditions: non-italicised figure: DELFIA assay
Response field class: enum, chosen by comparing Ki against band 1: < 400 nM; band 2: ≥ 400 nM and < 2000 nM; band 3: ≥ 2000 nM

Qu. Any idea which band Nc1cccc(C#Cc2c(-c3ccc4[nH]nc(N)c4c3)ccnc2N)c1 [Example 77] is in?
Ans. band 1

Qu. // bin(item) where item = CC(C)(C)C#Cc1cc(-c2ccnc(NC3CC3)c2)cc2c(N)n[nH]c12 [Example 153]
Ans. band 1

Qu. State the band of Nc1cc(-c2cc(-c3cccc(CN4CCOCC4)c3)c3[nH]nc(N)c3c2)ccn1 [Example 116]
Ans. band 2

Qu. Band for COC(=O)c1ccc(C#Cc2c(-c3ccc4[nH]nc(N)c4c3)ccnc2N)cc1 [Example 80] ?
Ans. band 1

Qu. Classify this molecule: CC(C)CC(=O)Nc1cc(-c2cc(C#CC(C)(C)C)c3[nH]nc(N)c3c2)ccn1 [Example 171]
Ans. band 3

Qu. Place this molecule in its band: Nc1cc(-c2cc(C#CC3CCOCC3)c3[nH]nc(N)c3c2)ccn1 [Example 142]
Ans. band 2

Qu. // return the class label for Nc1cc(-c2cc(-c3cccnc3)c3[nH]nc(N)c3c2)ccn1 [Example 127]
Ans. band 2

Qu. Hi there! Could you help me figure out the category for CCNC(=O)Nc1cc(-c2cc(C#CC(C)(C)C)c3[nH]nc(N)c3c2)ccn1 [Example 187] please?
Ans. band 3

Qu. Which class holds CC(C)(C)C#Cc1cc(-c2ccnc(NC(=O)CC3CC3)c2)cc2c(N)n[nH]c12 [Example 170] ?
Ans. band 2

Qu. Which bin should I file CCCNc1cc(-c2ccc3[nH]nc(N)c3c2)ccn1 [Example 13] under?
Ans. band 1

Qu. Could you place Nc1cc(-c2cc(-c3cccc(O)c3)c3[nH]nc(N)c3c2)ccn1 [Example 108] in its proper category? Many thanks.
Ans. band 2

Qu. Kindly state the category for this molecule: Nc1cc(-c2cc(Cl)c3[nH]nc(N)c3c2)ccn1 [Example 1]
Ans. band 2

Qu. # classify by Ki band: Nc1nccc(-c2ccc3[nH]nc(N)c3c2)c1C#CCCCN1CCCCC1 [Example 95]
Ans. band 3

Qu. Which bin, given its Ki, does Nc1n[nH]c2c(Cl)cc(-c3ccnc4[nH]ccc34)cc12 [Example 4] occupy?
Ans. band 1

Qu. Tag the class for COC(=O)Nc1cc(-c2cc(C#CC3CC3)c3[nH]nc(N)c3c2)ccn1 [Example 179]
Ans. band 2

Qu. Form: Item = Cc1cc(S(N)(=O)=O)ccc1-c1cc(-c2ccnc(N)c2)cc2c(N)n[nH]c12 [Example 126] ; Class = ?
Ans. band 3
